tested on: 2B.N2A9 (DNA, aptamer) CATCTGCAGTGTGGCACCATGGGCATTGGGGGGCGAGGGTGGTTGGAGCGTTTGTGTGCGACGTGCTGAGCGTGAATTCGC; experiment: indirect competitive ELOSA (SA-HRP/TMB); conditions: 37 °C, 1 h; 50 nM aptamer; competes with immobilised Neu5Gc-BSA (1 μg/mL coating)
The entries below come with measured IC50 values attached.

Previously resolved entries follow.
CC(=O)N[C@@H]1C(O)O[C@H](CO)[C@@H](O)[C@@H]1O (stereo partly shown) = 36,307.8 ng/mL
OC[C@H]1OC(O)[C@H](O)[C@@H](O)[C@@H]1O (stereo partly shown) = > 93,500.00 ng/mL
OC[C@H]1O[C@H](O[C@H]2[C@H](O)[C@@H](O)C(O)O[C@@H]2CO)[C@H](O)[C@@H](O)[C@@H]1O (stereo partly shown) = > 93,500.00 ng/mL

Next item in the queue.
Query: # query: IC50 of entry OC[C@H]1O[C@@](CO)(O[C@H]2O[C@H](CO)[C@@H](O)[C@H](O)[C@H]2O)[C@@H](O)[C@@H]1O
Result: > 93,500.00 ng/mL
